Target: T1, ZFP SBS#575 (synthetic)
T1 chain: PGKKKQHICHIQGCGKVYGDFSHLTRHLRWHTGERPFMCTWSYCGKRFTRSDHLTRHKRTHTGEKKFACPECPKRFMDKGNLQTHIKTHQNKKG
Experiment: EMSA
Conditions: tags: MBP fusion
readout-label: pKd
In plain terms, pKd is the concentration in mol/L turned into minus its base-10 logarithm.

Consider the binder shown here: TACGTGGGCT (dsDNA) DNA 1: TACGTGGGCT DNA 2: AGCCCACGTA What is its recorded pKd?
6.33

Recorded values, source patent US20030068675.
